# measurement-protocol: Comparison of pharmacokinetics in Beagle dogs (oral capsule of crude drug powder, LC-MS/MS plasma concentration)
# Assay type: in vivo
# measurement-context: both sexes, dog, 30 mg crude drug powder capsule, single period
Give measured AUC(0-inf) for each item. Keep answers brief.
Your answer is read as ng·h/mL, so omit the unit and give the number.

Recorded AUC(0-inf) for CCOc1cc(C(CS(C)(=O)=O)N2C(=O)c3cccc(NC(C)=O)c3C2=O)ccc1OC (single isomer, unassigned; (+)) [Form II] , please? 38200

Recorded AUC(0-inf) for CCOc1cc([C@@H](CS(C)(=O)=O)N2C(=O)c3cccc(NC(C)=O)c3C2=O)ccc1OC [Form B] , please? 38500
